The reader will find reported relative viability values listed item by item below.
# Tested on: NCI-H1755
# experimental.details: relative viability (nuclei count vs DMSO), 5 days (fraction); higher = more cells survive
# condition.summary: first compound 0.03162 µM
outcome.measure: relative viability

1. NC(=O)Nc1cc(-c2cccc(F)c2)sc1C(=O)N[C@H]1CCCNC1 [AZD7762] + Cc1nc(NC(=O)N2CCC[C@H]2C(N)=O)sc1-c1ccnc(C(C)(C)C(F)(F)F)c1 [Alpelisib] (partner 2 µM): 0.924
2. NC(=O)Nc1cc(-c2cccc(F)c2)sc1C(=O)N[C@H]1CCCNC1 [AZD7762] + Nc1ncn([C@H]2C[C@H](O)[C@@H](CO)O2)c(=O)n1 [Decitabine] (partner 2 µM): 0.839
3. NC(=O)Nc1cc(-c2cccc(F)c2)sc1C(=O)N[C@H]1CCCNC1 [AZD7762] + COc1cccc2cc(-c3nc([C@H]4CC[C@H](C(=O)O)CC4)n4ncnc(N)c34)[nH]c12 [OSI-027] (partner 0.5 µM): 0.845

* * *

# System: ChaGo-K-1
# experimental.details: relative viability (nuclei count vs DMSO), 5 days (fraction); higher = more cells survive
# condition.summary: first compound 0.8 µM
outcome.measure: relative viability

1. C=C1C(=O)O[C@@H](CCCCCCCC)[C@@H]1C(=O)O [C-75] + CCNC(=O)c1noc(-c2cc(C(C)C)c(O)cc2O)c1-c1ccc(CN2CCOCC2)cc1 [Luminespib] (partner 0.01 µM): 0.598
2. Oc1nc(-c2ccc(C(F)(F)F)cc2)nc2c1CSCC2 [XAV939] + CC(=O)c1c(C)c2cnc(Nc3ccc(N4CCNCC4)cn3)nc2n(C2CCCC2)c1=O [Palbociclib] (partner 0.5 µM): 0.915
3. Oc1nc(-c2ccc(C(F)(F)F)cc2)nc2c1CSCC2 [XAV939] + CC(=O)Nc1cccc(-n2c(=O)n(C3CC3)c(=O)c3c(Nc4ccc(I)cc4F)n(C)c(=O)c(C)c32)c1 [Trametinib] (partner 0.02 µM): 0.907

* * *

The reader will find reported relative viability values listed item by item below.
# System: NCI-H2405
# experimental.details: relative viability (nuclei count vs DMSO), 5 days (fraction); higher = more cells survive
# condition.summary: first compound 8 µM
outcome.measure: relative viability

1) C=C1C(=O)O[C@@H](CCCCCCCC)[C@@H]1C(=O)O [C-75] + Cc1nc(Nc2ncc(C(=O)Nc3c(C)cccc3Cl)s2)cc(N2CCN(CCO)CC2)n1 [Dasatinib] (partner 0.075 µM): 0.22
2) C=C1C(=O)O[C@@H](CCCCCCCC)[C@@H]1C(=O)O [C-75] + Cc1cc(Nc2cc(N3CCN(C)CC3)nc(Sc3ccc(NC(=O)C4CC4)cc3)n2)n[nH]1 [Tozasertib] (partner 0.1 µM): 0.81
3) C=C1C(=O)O[C@@H](CCCCCCCC)[C@@H]1C(=O)O [C-75] + NC(=O)Nc1cc(-c2cccc(F)c2)sc1C(=O)N[C@H]1CCCNC1 [AZD7762] (partner 0.2 µM): 0.764

* * *

The reader will find reported relative viability values listed item by item below.
# Tested on: LXF-289
# experimental.details: relative viability (nuclei count vs DMSO), 5 days (fraction); higher = more cells survive
# condition.summary: first compound 0.08 µM
outcome.measure: relative viability

1) C=C1C(=O)O[C@@H](CCCCCCCC)[C@@H]1C(=O)O [C-75] + CC(C)C[C@H](NC(=O)[C@H](Cc1ccccc1)NC(=O)c1cnccn1)B(O)O [Bortezomib] (partner 0.002 µM): 0.945
2) Oc1nc(-c2ccc(C(F)(F)F)cc2)nc2c1CSCC2 [XAV939] + N=C(N)NC(=N)NCCc1ccccc1 [Phenformin] (partner 250 µM): 0.556
3) C=C1C(=O)O[C@@H](CCCCCCCC)[C@@H]1C(=O)O [C-75] + COc1cccc2cc(-c3nc([C@H]4CC[C@H](C(=O)O)CC4)n4ncnc(N)c34)[nH]c12 [OSI-027] (partner 0.5 µM): 0.844

* * *

# System: HCC-827
# experimental.details: relative viability (nuclei count vs DMSO), 5 days (fraction); higher = more cells survive
# condition.summary: first compound 0.253 µM
The reader will find reported relative viability values listed item by item below.
outcome.measure: relative viability

1. Oc1nc(-c2ccc(C(F)(F)F)cc2)nc2c1CSCC2 [XAV939] + CC(=O)Nc1cccc(-n2c(=O)n(C3CC3)c(=O)c3c(Nc4ccc(I)cc4F)n(C)c(=O)c(C)c32)c1 [Trametinib] (partner 0.02 µM): 0.504
2. C=C1C(=O)O[C@@H](CCCCCCCC)[C@@H]1C(=O)O [C-75] + CC(C)C[C@H](NC(=O)[C@H](Cc1ccccc1)NC(=O)c1cnccn1)B(O)O [Bortezomib] (partner 0.002 µM): 0.995
3. C=C1C(=O)O[C@@H](CCCCCCCC)[C@@H]1C(=O)O [C-75] + Cc1cc(Nc2cc(N3CCN(C)CC3)nc(Sc3ccc(NC(=O)C4CC4)cc3)n2)n[nH]1 [Tozasertib] (partner 0.1 µM): 0.413
4. C=C1C(=O)O[C@@H](CCCCCCCC)[C@@H]1C(=O)O [C-75] + CC1(C)CCC(c2ccc(Cl)cc2)=C(CN2CCN(c3ccc(C(=O)NS(=O)(=O)c4ccc(N[C@H](CCN5CCOCC5)CSc5ccccc5)c(S(=O)(=O)C(F)(F)F)c4)cc3)CC2)C1 [Navitoclax] (partner 0.5 µM): 0.884

* * *

# Test system: NCI-H2085
# experimental.details: relative viability (nuclei count vs DMSO), 5 days (fraction); higher = more cells survive
# condition.summary: first compound 0.8 µM
outcome.measure: relative viability

1. C=C1C(=O)O[C@@H](CCCCCCCC)[C@@H]1C(=O)O [C-75] + C[C@]1(O)C[C@@H](c2nc(-c3ccc4ccc(-c5ccccc5)nc4c3)c3c(N)nccn32)C1 [Linsitinib] (partner 1 µM): 0.88
2. C=C1C(=O)O[C@@H](CCCCCCCC)[C@@H]1C(=O)O [C-75] + COc1cc2c(Oc3ccc(NC(=O)C4(C(=O)Nc5ccc(F)cc5)CC4)cc3F)ccnc2cc1OCCCN1CCOCC1 [Foretinib] (partner 0.25 µM): 0.921
3. Oc1nc(-c2ccc(C(F)(F)F)cc2)nc2c1CSCC2 [XAV939] + Nc1nc2[nH]cc(CCc3ccc(C(=O)N[C@@H](CCC(=O)O)C(=O)O)cc3)c2c(=O)[nH]1 [Pemetrexed] (partner 0.2 µM): 0.878
4. C=C1C(=O)O[C@@H](CCCCCCCC)[C@@H]1C(=O)O [C-75] + C[C@@H](Oc1cc(-c2cnn(C3CCNCC3)c2)cnc1N)c1c(Cl)ccc(F)c1Cl [Crizotinib] (partner 1 µM): 0.878

* * *

# Test system: NCI-H2170
# experimental.details: relative viability (nuclei count vs DMSO), 5 days (fraction); higher = more cells survive
# condition.summary: first compound 0.253 µM
outcome.measure: relative viability

1. C=C1C(=O)O[C@@H](CCCCCCCC)[C@@H]1C(=O)O [C-75] + Nc1ncn([C@H]2C[C@H](O)[C@@H](CO)O2)c(=O)n1 [Decitabine] (partner 2 µM): 0.505
2. C=C1C(=O)O[C@@H](CCCCCCCC)[C@@H]1C(=O)O [C-75] + CC1(C)CCC(c2ccc(Cl)cc2)=C(CN2CCN(c3ccc(C(=O)NS(=O)(=O)c4ccc(N[C@H](CCN5CCOCC5)CSc5ccccc5)c(S(=O)(=O)C(F)(F)F)c4)cc3)CC2)C1 [Navitoclax] (partner 0.5 µM): 0.641
3. Oc1nc(-c2ccc(C(F)(F)F)cc2)nc2c1CSCC2 [XAV939] + CCNC(=O)c1noc(-c2cc(C(C)C)c(O)cc2O)c1-c1ccc(CN2CCOCC2)cc1 [Luminespib] (partner 0.01 µM): 0.754

* * *

# Test system: COR-L23
# experimental.details: relative viability (nuclei count vs DMSO), 5 days (fraction); higher = more cells survive
# condition.summary: first compound 2.53 µM
Lab note: compare relative viability with 0.5, writing 1 if less and 0 if equal or more.

1) Oc1nc(-c2ccc(C(F)(F)F)cc2)nc2c1CSCC2 [XAV939] + CC(=O)Nc1cccc(-n2c(=O)n(C3CC3)c(=O)c3c(Nc4ccc(I)cc4F)n(C)c(=O)c(C)c32)c1 [Trametinib] (partner 0.02 µM): 0
2) C=C1C(=O)O[C@@H](CCCCCCCC)[C@@H]1C(=O)O [C-75] + CCNC(=O)c1noc(-c2cc(C(C)C)c(O)cc2O)c1-c1ccc(CN2CCOCC2)cc1 [Luminespib] (partner 0.01 µM): 0
3) C=C1C(=O)O[C@@H](CCCCCCCC)[C@@H]1C(=O)O [C-75] + C[C@@H](Oc1cc(-c2cnn(C3CCNCC3)c2)cnc1N)c1c(Cl)ccc(F)c1Cl [Crizotinib] (partner 1 µM): 0
4) Oc1nc(-c2ccc(C(F)(F)F)cc2)nc2c1CSCC2 [XAV939] + Nc1nc2[nH]cc(CCc3ccc(C(=O)N[C@@H](CCC(=O)O)C(=O)O)cc3)c2c(=O)[nH]1 [Pemetrexed] (partner 0.2 µM): 1
5) Oc1nc(-c2ccc(C(F)(F)F)cc2)nc2c1CSCC2 [XAV939] + COc1cc2c(Oc3ccc(NC(=O)C4(C(=O)Nc5ccc(F)cc5)CC4)cc3F)ccnc2cc1OCCCN1CCOCC1 [Foretinib] (partner 0.25 µM): 0
6) Oc1nc(-c2ccc(C(F)(F)F)cc2)nc2c1CSCC2 [XAV939] + C[C@]1(O)C[C@@H](c2nc(-c3ccc4ccc(-c5ccccc5)nc4c3)c3c(N)nccn32)C1 [Linsitinib] (partner 1 µM): 0

Just for reference, the supplement of paper PMC10307832 is where these values come from.
